system: NCI/ADR-RES ovarian; test: NCI tumour cell line growth inhibition, 48 h
// reported TGI for each item listed

Cc1cc(=O)[nH]c(S(=O)(=O)NC(=O)Nc2cccc(Cl)c2)n1 = > 100 µM

Request: Record request: TGI value, item Nc1n[nH]c2cc(F)c([C@@H]3Nc4c(F)cc5[nH]ncc5c4[C@H]4C5CCC(C5)[C@@H]34)cc12 (some centres undefined)
Response: 5.67 µM

Request: Value lookup for TGI; key = CCOC1Oc2ccccc2-c2nc(N)ncc21 (centres undefined)
Response: > 100 µM

Request: Data request, read-out TGI, for `CCCCc1n(Cc2ccc3ccccc3n2)cc[n+]1Cc1ccc2ccccc2c1`
Response: > 100 µM

====

test system: MDA-N; assay: NCI tumour cell line growth inhibition, 48 h
TGI reference

CN(C)c1cccc2c(S(=O)(=O)NCCCNCCN)cccc12 = 69.6 µM
COc1cccc(C=C(C#N)C#N)c1OC = > 100 µM
CCC1=NC(N/N=C/c2ccco2)=N/C1=C\c1ccco1 = > 100 µM
COc1ccc(N2C(=O)C3c4[nH]c5ccc(OC)cc5c4C4CCC(c5ccccc5)CC4C3C2=O)cc1 (stereo unspecified) = > 66.7 µM
CCOC(=O)c1cccc(N=Nc2ncc(/C=C/C(=O)OC)[nH]2)c1 = > 100 µM

Then there is this compound:
Request: Value lookup for TGI; key = `C#C[C@]1(O)[C@@H](CO)O[C@@H](n2ccc(=O)[nH]c2=O)[C@@H]1O`
Response: 1.71 µM

====

tested on: OVCAR-5 ovarian; experiment: NCI tumour cell line growth inhibition, 48 h
READOUT_TYPE: TGI

CC12OC(C(=O)C13CCC3)C1C(=O)c3c(O)ccc(O)c3C(=O)C12 (stereo unspecified) = 4.29 µM
Cc1c2ccccc2cc2cccc[n+]12 = > 100 µM
O=C(NN1CCCCC1)c1cc2cc(CCl)ccc2oc1=O = 31.8 µM
CNC(=O)OCC1=C(COC(=O)NC)CN(c2ccc(OC)cc2)C1 = > 100 µM

Request: Could you share which TGI value was measured for `N#CC(C#N)=C(N)/C(C#N)=C/c1ccc(O)c(O)c1` ?
Response: > 100 µM

Request: Fill in: TGI of `COc1cc(/C=C/C(=O)N[C@@H]2C(=O)N3[C@@H]2SC(C)(C)[C@@H]3C(=O)O)ccc1O` is ___
Response: > 100 µM

====

test system: ACHN renal; experiment: NCI tumour cell line growth inhibition, 48 h
READOUT_TYPE: GI50

Here is how some molecules turned out for GI50.
C=CC(=O)OCCCS(=O)(=O)[O-].C=CC(=O)OCCCS(=O)(=O)[O-].NC1CCCCC1N.[Pt+4] = > 25 µM
Cc1ccc(Nn2c(SCC(=O)Nc3nc(-c4ccccc4)cs3)nc(C)c2C)cc1 = 4.06 µM
CC1=CC[C@@H]2C(=O)C=CC=C[C@H]12.[C-]#[O+].[C-]#[O+].[C-]#[O+].[Fe] = > 100 µM
COc1ccc(-c2cncn2-c2ccc(-c3nc4cc(OC)c(OC)c(OC)c4s3)cc2)cc1N = 5.59 µM
COc1cc2c3c(n(CCCN=[N+]=[N-])c(=O)c2cc1OC)-c1ccc(NC(C)=O)cc1C3=O = > 50 µM

Request: Request - read-out GI50 | tested on ACHN renal | molecule `NC1=CC(=O)C(=O)c2ccccc21`
Response: 16.2 µM

Request: Look up GI50 with ACHN renal for this molecule: `CCCCc1n(Cc2ccc3ccccc3n2)cc[n+]1Cc1ccc2ccccc2c1`
Response: 2.89 µM

Request: // lookup GI50 | system=ACHN renal | key= CC12OC(C(=O)C13CCC3)C1C(=O)c3c(O)ccc(O)c3C(=O)C12 (stereo not given)
Response: 0.715 µM

Request: I'm curious: which GI50 was measured for `Clc1ccc2c(NCCNc3nc(N4CCCCC4)nc4ccccc34)ccnc2c1` tested on ACHN renal?
Response: 1.79 µM

Request: Kindly state the measured GI50 obtained for `O=C1Nc2cc(-c3ccc(O)cc3)ccc2/C1=C/c1ccc[nH]1` with ACHN renal.
Response: 0.0504 µM
